Provide the reported EC50 of each item.
- ASSAYED SYSTEM: T1, human CD19 on Raji cells (human, UniProt P15391 20-556)
- T1 construct: whole, on cells
- T1 sequence (looked up): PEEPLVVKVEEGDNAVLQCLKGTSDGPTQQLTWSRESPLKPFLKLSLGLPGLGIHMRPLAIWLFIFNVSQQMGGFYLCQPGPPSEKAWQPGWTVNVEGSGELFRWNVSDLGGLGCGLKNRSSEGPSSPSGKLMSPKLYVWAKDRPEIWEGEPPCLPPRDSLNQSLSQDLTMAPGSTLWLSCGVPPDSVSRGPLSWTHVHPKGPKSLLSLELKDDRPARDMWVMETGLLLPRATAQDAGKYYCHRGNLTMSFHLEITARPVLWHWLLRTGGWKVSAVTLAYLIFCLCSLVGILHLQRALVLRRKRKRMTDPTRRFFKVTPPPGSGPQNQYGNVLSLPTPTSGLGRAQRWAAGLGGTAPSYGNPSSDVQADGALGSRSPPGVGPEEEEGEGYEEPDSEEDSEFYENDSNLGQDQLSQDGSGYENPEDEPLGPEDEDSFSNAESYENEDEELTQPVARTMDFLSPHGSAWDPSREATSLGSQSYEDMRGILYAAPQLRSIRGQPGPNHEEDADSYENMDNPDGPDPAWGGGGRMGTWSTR
- ASSAY REMARKS: FACS on Raji cells
Give the value; after it, write the unit.

Reference set (3 entries):
BINDER	EC50
F3.121.4-L1H2 (antibody, mouse IgG1, kappa, V domains shown, humanized antibody of F3.121.4, VL1+VH2, murine IgG1 constant regions) VH: EVQLVQSGAEVKKPGASVKVSCKASGYTFTNYWMHWVRQAPGQGLEWMGEIDPSDNYANYNQEFQGRVTITVDKSASTAYMELSSLRSEDTAVYYCARHDGYFGALDYWGQGTTVTVSS VL: EIVLTQSPATLSLSPGERATLSCSASSSISSNYLHWYQQKPGQAPRFLIYRTSNLASGIPARFSGSGSGTDFTLTISSLEPEDFAVYYCQQASSIPRMFTFGQGTKLEIKR	0.43 nM
F3.121.4-L2H2 (antibody, mouse IgG1, kappa, V domains shown, humanized antibody of F3.121.4, VL2+VH2, murine IgG1 constant regions) VH: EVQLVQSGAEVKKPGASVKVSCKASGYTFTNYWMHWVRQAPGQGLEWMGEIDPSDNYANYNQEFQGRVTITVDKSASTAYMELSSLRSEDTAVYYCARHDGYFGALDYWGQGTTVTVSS VL: EIVLTQSPDFQSVTPKEKVTITCSASSSISSNYLHWYQQKPDQSPKLLIKRTSNLASGVPSRFSGSGSGTDFTLTINSLEAEDAATYYCQQASSIPRMFTFGQGTKLEIKR	0.41 nM
F3.121.4-L3H1 (antibody, mouse IgG1, kappa, V domains shown, humanized antibody of F3.121.4, VL3+VH1, murine IgG1 constant regions) VH: EVQLVQSGAEVKKPGASVKVSCKASGYTFTNYWMHWVRQAPGQRLEWMGEIDPSDNYANYNQEFQGRVTITVDKSASTAYMELSSLRSEDTAVYYCARHDGYFGALDYWGQGTTVTVSS VL: EIVLTQSPDFQSVTPKEKVTITCSASSSISSNYLHWYQQKPDQSPKFLIYRTSNLASGVPSRFSGSGSGTDFTLTINSLEAEDAATYYCQQASSIPRMFTFGQGTKLEIKR	0.38 nM

What measured EC50 goes with F3.121.4 (antibody, human IgG1, V domains shown, human-murine chimeric antibody, human IgG1 constant; also called chimeric antibody F3.121.4) VH: QVQLQQPGAELVVPGTSVKLSCKASGYTFTNYWMHWVKQRPGQGLEWIGEIDPSDNYANYNQEFQGKATLTVDKSSSTAYMQLSSLTSDDSAVYYCARHDGYFGALDYWGQGTSVTVSS VL: EIVLTQSPTTMAASPGEKITITCSASSSISSNYLHWYQQKPGFSPKFLIYRTSNLASGVPARFSGSGSGTSYSLTIGTMEAEDVATYYCQQASSIPRMFTFGSGTKLEIK ?
0.31 nM
